# assay procedure: ATP level change in INS-1E without cytokines, dose response, counter-screen for beta-cell apoptosis protection project, INS-1E rat cells, ATP luminescence, cherry pick (AID 463229)
# condition info: INS-1E rat beta cells, no cytokines, CellTiter-Glo ATP, 48 h; series mostly up to 26 µM
The whole screen tested about 2,300 compounds, of which about 2,100 (91%) were called active. So high a share suggests a set chosen from earlier hits. These entries were drawn from the full list. Measured potencies and affinities stand elsewhere.
measurement type: outcome

Previously resolved entries follow.
COc1ccc(/C=N/N2CCN(Cc3ccccc3)CC2)cc1 | inactive
CCn1c(=O)c(C(=O)Nc2ccccn2)c(O)c2ccccc21 | inactive
Cc1ccccc1OC1C(=O)N(Cc2ccc3c(c2)OCO3)C1c1sccc1C (stereo not drawn) | inactive
O=c1c(Cl)c2oc3ccccc3nc-2c2ccccc12 | inactive
O=c1c2c3c(sc2n(CCN2CCCCC2)c(=O)n1Cc1ccco1)CCCCC3 | inactive
Cc1cc(C)cc(OCCCn2ccnc2)c1 | inactive
Cc1ccc(O)c(/C=N/NC(=O)c2[nH]ncc2Br)c1 | inactive
O=C(Nc1ccc(Nc2ccncc2)cc1)c1ccc(Nc2ccnc3ccc([N+](=O)[O-])cc23)cc1[N+](=O)[O-] | inactive
CCCOC(=O)/C(C(N)=NCc1ccccc1)=C(\O)OCCC | inactive
Cc1ccc2c(c1)Sc1c(ccc3ccccc13)N2 | inactive

Exam item: Entry CC(C)NC(=S)NC(c1ccccc1)(c1ccccc1)c1ccccc1 : reported outcome = ?
Marked response: inactive

Exam item: Entry COc1cc(CNCCO)cc(Cl)c1OCc1ccc(Cl)cc1Cl : reported outcome = ?
Marked response: inactive

Exam item: Entry CCOC(=O)C1=C(CCc2ccccc2)NC(=O)NC1c1ccc2ccccc2c1 (stereo not drawn) : reported outcome = ?
Marked response: inactive

Exam item: Entry COc1ccc(CN2CCN(CCSc3ccc(C)cc3)CC2)c(OC)c1OC : reported outcome = ?
Marked response: inactive

Exam item: Entry O=[N+]([O-])c1ccc(-n2cnc3ccccc32)c([N+](=O)[O-])c1 : reported outcome = ?
Marked response: inactive

Exam item: Entry COc1ccccc1NS(=O)(=O)c1cccc(NC(=O)c2[nH]c(C)c(C(C)=O)c2C)c1 : reported outcome = ?
Marked response: inactive

Exam item: Entry Cc1cccc(NC(=O)Cn2c(/C=C/c3ccccc3)nc3ccccc32)c1 : reported outcome = ?
Marked response: inactive

Exam item: Entry CC(C)OCCCNC(=S)N1CCC(C(=O)c2ccc(Cl)cc2)CC1 : reported outcome = ?
Marked response: inactive

Exam item: Entry CCCCn1cnc2c(c(-c3ccccc3)c(-c3ccccc3)n2Cc2ccco2)c1=N : reported outcome = ?
Marked response: inactive

Exam item: Entry FC(F)(F)c1ccccc1NC(=S)N1CCc2ccccc2C1 : reported outcome = ?
Marked response: inactive

Exam item: Entry N#Cc1ccc(-c2csc(NNC(=O)c3ccccc3)n2)cc1 : reported outcome = ?
Marked response: inactive

Exam item: Entry COc1ccccc1NCC(=O)N1CCN(S(=O)(=O)c2ccccc2)CC1 : reported outcome = ?
Marked response: inactive

Exam item: Entry Nc1ccc(N2CCCCC2)cc1N1CCCCC1 : reported outcome = ?
Marked response: inactive

Exam item: Entry CCN(CC)c1ccc(N=C2C(=O)Nc3ccccc32)cc1 : reported outcome = ?
Marked response: inactive

Exam item: Entry CCN(CC)C(=O)C1CCCN(C(=S)Nc2cccc3ccccc23)C1 (stereo not drawn) : reported outcome = ?
Marked response: inactive

Exam item: Entry Fc1ccc(Oc2nc(-c3ccccn3)nc3ccccc23)cc1 : reported outcome = ?
Marked response: inactive

meta.source: PubChem BioAssay AID463229
